This collection of values is drawn from patent US20120065134A1.

- Subject of test: T1, CD40 ligand (CD40L or CD154) (UniProt P29965 113-261, limits assumed, biotinylated ('biotinylated phospho-CD40L') in the proximity assay as described in paragraph 342)
- T1 construct: Species never stated; also called soluble CD40L; CD40L target protein
- T1 sequence (looked up): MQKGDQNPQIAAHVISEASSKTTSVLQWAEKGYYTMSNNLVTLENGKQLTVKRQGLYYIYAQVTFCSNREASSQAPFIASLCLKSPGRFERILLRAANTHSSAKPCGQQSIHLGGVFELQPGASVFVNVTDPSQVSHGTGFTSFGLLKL
- Assay remarks: Alphascreen proximity assay, inhibition of CD40L/CD40-Fc interaction, unmodified peptide
Quantity measured: pEC50
Scale for pEC50: -log10 of concentration given in mol/L; no unit attached.

response.value for CD40L M8_747 (peptide) peptide: LAEHAVWSLKCFPDWEWYNINIFGTDDPNHFWVECDGHGKILFPGYPEGYYENHFLHSFELED (field: pEC50) = 6.71
